- Test system: Staphylococcus aureus
- test_description: Antimicrobial activity against Oxacillin-resistant Staphylococcus aureus by broth microdilution method
- Format: functional
MIC50 listing for selected molecules.

Consider the reported MIC50 for these molecules:
| smiles_record | measure | result |
| --- | --- | --- |
| CCC[C@@H]1C[C@@H](C(=O)N[C@@H]([C@H]2O[C@H](SC)[C@H](O)[C@@H](O)[C@H]2O)[C@H](C)Cl)N(C)C1 | MIC50 | > 2 µg/mL |
| CN[C@H]1C(=O)N[C@@H]2Cc3ccc(cc3)Oc3cc4cc(c3O[C@@H]3O[C@H](C(=O)O)[C@@H](O)[C@H](O)[C@H]3NC(=O)CCCCCCCCC(C)C)Oc3ccc(cc3Cl)[C@@H](O)[C@@H]3NC(=O)[C@H](NC(=O)[C@@H]4NC(=O)[C@@H](NC2=O)c2cc(cc(O)c2Cl)Oc2cc1ccc2O)c1ccc(O)c(c1)-c1c(O[C@H]2O[C@H](CO)[C@@H](O)[C@H](O)[C@@H]2O)cc(O)cc1[C@@H](C(=O)NCCCN(C)C)NC3=O | MIC50 | 0.06 µg/mL |

Now, please, on to the next molecule.
*Q* For the molecule `CN[C@H](CC(C)C)C(=O)N[C@H]1C(=O)N[C@@H](CC(N)=O)C(=O)N[C@H]2C(=O)N[C@H]3C(=O)N[C@H](C(=O)N[C@H](C(=O)O)c4cc(O)cc(O)c4-c4cc3ccc4O)[C@H](O)c3ccc(c(Cl)c3)Oc3cc2cc(c3O[C@@H]2O[C@H](CO)[C@@H](O)[C@H](O)[C@H]2O[C@H]2C[C@](C)(N)[C@H](O)[C@H](C)O2)Oc2ccc(cc2Cl)[C@H]1O` , what MIC50 is on record?
*A* 1 µg/mL

* * *

- Tested on: Streptococcus
- test_description: Antimicrobial activity against viridans group Streptococcus assessed as percent resistant isolates by broth microdilution method
- Type: functional
Could you mark each record label 1 if its Activity falls strictly under 4%, and label 0 if it equals or exceeds it?

Past entries and their recorded results:
| smiles_record | discrete_label |
| --- | --- |
| C[C@H]1COc2c(N3CCN(C)CC3)c(F)cc3c(=O)c(C(=O)O)cn1c23.C[C@H]1COc2c(N3CCN(C)CC3)c(F)cc3c(=O)c(C(=O)O)cn1c23.O | label 1 |
| CC[C@H]1OC(=O)[C@H](C)[C@@H](O[C@H]2C[C@@](C)(OC)[C@@H](O)[C@H](C)O2)[C@H](C)[C@@H](O[C@@H]2O[C@H](C)C[C@H](N(C)C)[C@H]2O)[C@](C)(O)C[C@@H](C)C(=O)[C@H](C)[C@@H](O)[C@]1(C)O | label 0 |
| CO/N=C(\C(=O)N[C@@H]1C(=O)N2C(C(=O)O)=C(CSc3nc(=O)c(O)nn3C)CS[C@H]12)c1csc(N)n1 | label 0 |
| CCC[C@@H]1C[C@@H](C(=O)N[C@@H]([C@H]2O[C@H](SC)[C@H](O)[C@@H](O)[C@H]2O)[C@H](C)Cl)N(C)C1 | label 0 |

Attention now shifts to the item below.
*Q* hey, is Activity for `CC1(C)S[C@@H]2[C@H](NC(=O)Cc3ccccc3)C(=O)N2[C@H]1C(=O)O` lower than 4% or not?
*A* label 0

* * *

- Test system: Staphylococcus aureus
- test_description: Antimicrobial activity against Oxacillin-resistant Staphylococcus aureus assessed as percent susceptible isolate by broth microdilution method
- Type: functional
measure: Activity

Consider the reported Activity for these compounds:
| smiles_record | measure | result |
| --- | --- | --- |
| C[C@H]1COc2c(N3CCN(C)CC3)c(F)cc3c(=O)c(C(=O)O)cn1c23.C[C@H]1COc2c(N3CCN(C)CC3)c(F)cc3c(=O)c(C(=O)O)cn1c23.O | Activity | 18.3% |
| CN[C@H](CC(C)C)C(=O)N[C@H]1C(=O)N[C@@H](CC(N)=O)C(=O)N[C@H]2C(=O)N[C@H]3C(=O)N[C@H](C(=O)N[C@H](C(=O)O)c4cc(O)cc(O)c4-c4cc3ccc4O)[C@H](O)c3ccc(c(Cl)c3)Oc3cc2cc(c3O[C@@H]2O[C@H](CO)[C@@H](O)[C@H](O)[C@H]2O[C@H]2C[C@](C)(N)[C@H](O)[C@H](C)O2)Oc2ccc(cc2Cl)[C@H]1O | Activity | >99.9% |
| CCC[C@@H]1C[C@@H](C(=O)N[C@@H]([C@H]2O[C@H](SC)[C@H](O)[C@@H](O)[C@H]2O)[C@H](C)Cl)N(C)C1 | Activity | 47.8% |
| CN(C)[C@@H]1C(O)=C(C(N)=O)C(=O)[C@@]2(O)C(O)=C3C(=O)c4c(O)cccc4[C@@](C)(O)[C@H]3C[C@@H]12 | Activity | 81.1% |

Now, please, on to the next compound.
*Q* API: value(readout=Activity, system=Staphylococcus aureus) for record `CC[C@H]1OC(=O)[C@H](C)[C@@H](O[C@H]2C[C@@](C)(OC)[C@@H](O)[C@H](C)O2)[C@H](C)[C@@H](O[C@@H]2O[C@H](C)C[C@H](N(C)C)[C@H]2O)[C@](C)(O)C[C@@H](C)C(=O)[C@H](C)[C@@H](O)[C@]1(C)O`
*A* 10.9%

* * *

- System: Streptococcus
- test_description: Antimicrobial activity against Beta-hemolytic Streptococcus by broth microdilution method
- Format: functional
MIC50 listing for selected compounds.
Write it as a number; the unit µg/mL goes unstated.

Consider the reported MIC50 for these compounds:
| smiles_record | measure | number |
| --- | --- | --- |
| CN[C@H](CC(C)C)C(=O)N[C@H]1C(=O)N[C@@H](CC(N)=O)C(=O)N[C@H]2C(=O)N[C@H]3C(=O)N[C@H](C(=O)N[C@H](C(=O)O)c4cc(O)cc(O)c4-c4cc3ccc4O)[C@H](O)c3ccc(c(Cl)c3)Oc3cc2cc(c3O[C@@H]2O[C@H](CO)[C@@H](O)[C@H](O)[C@H]2O[C@H]2C[C@](C)(N)[C@H](O)[C@H](C)O2)Oc2ccc(cc2Cl)[C@H]1O | MIC50 | 0.5 |
| CO/N=C(\C(=O)N[C@@H]1C(=O)N2C(C(=O)O)=C(CSc3nc(=O)c(O)nn3C)CS[C@H]12)c1csc(N)n1 | MIC50 | 0.25 |

*Q* API: value(readout=MIC50, system=Streptococcus) for record `CN[C@H]1C(=O)N[C@@H]2Cc3ccc(cc3)Oc3cc4cc(c3O[C@@H]3O[C@H](C(=O)O)[C@@H](O)[C@H](O)[C@H]3NC(=O)CCCCCCCCC(C)C)Oc3ccc(cc3Cl)[C@@H](O)[C@@H]3NC(=O)[C@H](NC(=O)[C@@H]4NC(=O)[C@@H](NC2=O)c2cc(cc(O)c2Cl)Oc2cc1ccc2O)c1ccc(O)c(c1)-c1c(O[C@H]2O[C@H](CO)[C@@H](O)[C@H](O)[C@@H]2O)cc(O)cc1[C@@H](C(=O)NCCCN(C)C)NC3=O`
*A* 0.03

*Q* API: value(readout=MIC50, system=Streptococcus) for record `CCC[C@@H]1C[C@@H](C(=O)N[C@@H]([C@H]2O[C@H](SC)[C@H](O)[C@@H](O)[C@H]2O)[C@H](C)Cl)N(C)C1`
*A* 0.25

* * *

MIC listing for selected molecules.
- Tested on: Staphylococcus
- test_description: Antimicrobial activity against Oxacillin-susceptible coagulase-negative Staphylococcus by broth microdilution method
- Type: functional

Consider the reported MIC for these molecules:
| smiles_record | result |
| --- | --- |
| CN(C)[C@@H]1C(O)=C(C(N)=O)C(=O)[C@@]2(O)C(O)=C3C(=O)c4c(O)cccc4[C@@](C)(O)[C@H]3C[C@@H]12 | ≤ 4 µg/mL |
| CN[C@H]1C(=O)N[C@@H]2Cc3ccc(cc3)Oc3cc4cc(c3O[C@@H]3O[C@H](C(=O)O)[C@@H](O)[C@H](O)[C@H]3NC(=O)CCCCCCCCC(C)C)Oc3ccc(cc3Cl)[C@@H](O)[C@@H]3NC(=O)[C@H](NC(=O)[C@@H]4NC(=O)[C@@H](NC2=O)c2cc(cc(O)c2Cl)Oc2cc1ccc2O)c1ccc(O)c(c1)-c1c(O[C@H]2O[C@H](CO)[C@@H](O)[C@H](O)[C@@H]2O)cc(O)cc1[C@@H](C(=O)NCCCN(C)C)NC3=O | ≤ 0.03 µg/mL |
| C[C@H]1COc2c(N3CCN(C)CC3)c(F)cc3c(=O)c(C(=O)O)cn1c23.C[C@H]1COc2c(N3CCN(C)CC3)c(F)cc3c(=O)c(C(=O)O)cn1c23.O | ≤ 0.5 µg/mL |
| CC[C@H]1OC(=O)[C@H](C)[C@@H](O[C@H]2C[C@@](C)(OC)[C@@H](O)[C@H](C)O2)[C@H](C)[C@@H](O[C@@H]2O[C@H](C)C[C@H](N(C)C)[C@H]2O)[C@](C)(O)C[C@@H](C)C(=O)[C@H](C)[C@@H](O)[C@]1(C)O | ≤ 0.25 µg/mL |

*Q* For the molecule `CCC[C@@H]1C[C@@H](C(=O)N[C@@H]([C@H]2O[C@H](SC)[C@H](O)[C@@H](O)[C@H]2O)[C@H](C)Cl)N(C)C1` , what MIC is on record?
*A* ≤ 0.25 µg/mL
